Target: GLP-1 receptor
Experiment: cell-based or functional assay
Numbered stars: 1 amine (or outer) side, 2 acyl side, 3 side chain; on linkers, the order of the positions; unused ones are H or OH. Square brackets hold non-standard residues; d marks the D form. Ends that are not written are not given here. X2 = 2‑amino‑1‑O‑methyl‑2‑deoxy‑alpha‑D‑glucopyranuronic acid, CO[C@H]1O[C@H](C(=O)[*:2])[C@@H](O)[C@H](O)[C@H]1N[*:1]; 2Furoyl(5-aminomethyl) = O=C(c1ccc(CN[*:1])o1)[*:2]
readout.type: EC50, Receptor Functional assay (intracellular cAMP in CHO/GLP-1R cells) (pM)
Record the value in pM, omitting the unit from your answer.

Below, 3 binders whose answers are already recorded.
binder	experimental.result
H[2Furoyl(5-aminomethyl)]GTFTSDVLSYQEGQAAKLFIEWLVKGR-NH2 [Seq ID No. 12]	2240
HGEGTFTSDXSSYLEGQAAKEFIXWLVKGR (Xaa1 at position 10 and Xaa2 at position 24 are dialkylated aminoacid (alpha-aminoisobutyric acid); C-terminal amide (Arg-NH2)) [Seq ID No. 05]	83
H[X2]EGTFTSDVSSYLEGQAAKEFIAWLVKGR-NH2 [Seq ID No. 06]	838

Query: I have this binder here, HXGTFTSDVSSYLEGQAAKEFIAWLVKXR (Xaa1 at position 2 is furan aminoacid (5-aminomethyl-furan-2 carboxylic acid); Xaa2 at position 28 is dialkylated aminoacid (alpha-aminoisobutyric acid); C-terminal amide (Arg-NH2)) [Seq ID No. 11] , and I need its recorded EC50, Receptor Functional assay (intracellular cAMP in CHO/GLP-1R cells).
Response: 102

Query: I have this binder here, H[2Furoyl(5-aminomethyl)]EGTFTSDVSSYLEGQAAKEFIAWLVKGRG-NH2 [Seq ID No. 01] , and I need its recorded EC50, Receptor Functional assay (intracellular cAMP in CHO/GLP-1R cells).
Response: 103

Query: I have this binder here, HXEGTFTSDXSSYLEGQAAKEFIXWLVKGRG (Xaa1 at position 2 is furan aminoacid (5-aminomethyl-furan-2 carboxylic acid); Xaa2 at position 10 and Xaa3 at position 24 are dialkylated aminoacid (alpha-aminoisobutyric acid); C-terminal amide (Gly-NH2)) [Seq ID No. 09] , and I need its recorded EC50, Receptor Functional assay (intracellular cAMP in CHO/GLP-1R cells).
Response: 1000

Query: I have this binder here, H[2Furoyl(5-aminomethyl)]EGTFTSDVSSYLEGQAAKEFIAWLVKGR-NH2 [Seq ID No. 03] , and I need its recorded EC50, Receptor Functional assay (intracellular cAMP in CHO/GLP-1R cells).
Response: 61

FYI, the data here is from patent US20110269680A1.
